tested on: Mus musculus; assay: Hypothermic activity in ip dosed albino CF1 mouse assessed as effect on body temperature measured after 45 mins; assay type: functional; conditions: 0.75 h
measured_quantity: ED50 (mg/kg)
Please reply with the bare figure in mg/kg and do not write the unit itself.

>  <compound>
CN1CCN(c2nnc3n2-c2ccccc2C(c2ccccc2)=NC3)CC1

>  <ED50 / mg/kg>
12.5

$$$$
>  <compound>
CSc1nnc2n1-c1ccc(Cl)cc1C(c1ccccc1)=NC2

>  <ED50 / mg/kg>
10

$$$$
>  <compound>
CN(C)CCCN1c2ccccc2Sc2ccc(Cl)cc21 [CHLORPROMAZINE]

>  <ED50 / mg/kg>
1

$$$$

Give the measured ED50 of Clc1ccc2c(c1)C(c1ccccc1)=NCc1nnc(N3CCCC3)n1-2 .
40

Give the measured ED50 of CCN1CCN(c2nnc3n2-c2ccccc2C(c2ccccc2Cl)=NC3)CC1 .
2

Give the measured ED50 of CN1CCN(c2nnc3n2-c2ccc(Cl)cc2C(c2ccccc2Cl)=NC3)CC1 .
3.1

Give the measured ED50 of OCCN1CCN(c2nnc3n2-c2ccccc2C(c2ccccc2Cl)=NC3)CC1 .
2

Give the measured ED50 of Cc1nnc2n1-c1ccc(N)cc1C(c1ccccc1Cl)=NC2 .
30

* * *

test system: Mus musculus; assay: Hypothermic activity in ip dosed albino CF1 mouse assessed as effect on body temperature measured after 45 mins; type: functional; settings: 0.75 h
measured_quantity: ED50

Worked set:
>  <compound>
Clc1ccc2c(c1)C(c1ccccc1Cl)=NCc1nnc(N3CCOCC3)n1-2

>  <value_observed>
6 mg/kg

$$$$
>  <compound>
CC1N=C(c2ccccc2)c2cc(Cl)ccc2-n2c1nnc2N1CCOCC1 (stereo unspecified)

>  <value_observed>
> 50 mg/kg

$$$$
>  <compound>
CC1N=C(c2ccccc2)c2cc(Cl)ccc2-n2cnnc21 (stereo unspecified)

>  <value_observed>
10.5 mg/kg

$$$$
>  <compound>
Clc1ccc2c(c1)C(c1ccccc1)=NCc1nnc(Br)n1-2

>  <value_observed>
> 50 mg/kg

$$$$
>  <compound>
CCOCc1nnc2n1-c1ccc(Cl)cc1C(c1ccccc1)=NC2

>  <value_observed>
40 mg/kg

$$$$
>  <compound>
CCN(CC)CCOc1nnc2n1-c1ccc(Cl)cc1C(c1ccccc1)=NC2

>  <value_observed>
> 50 mg/kg

$$$$

Which ED50 is reported with Mus musculus for this entry: CN1C(=O)CN=C(c2ccccc2)c2cc(Cl)ccc21 ?
14.9 mg/kg

Which ED50 is reported with Mus musculus for this entry: OCCc1nnc2n1-c1ccc(Cl)cc1C(c1ccccc1)=NC2 ?
30 mg/kg

* * *

test system: Mus musculus; assay: Hypothermic activity in ip dosed albino CF1 mouse assessed as effect on body temperature measured after 45 mins; type: functional; settings: 0.75 h
// ED50 lookup, one value per entry
Please reply with the bare figure in mg/kg and do not write the unit itself.

>  <chemical_smiles>
CCN1CCN(c2nnc3n2-c2ccc(Cl)cc2C(c2ccccc2)=NC3)CC1

>  <unit_symbol>
mg/kg

>  <ED50>
42

$$$$
>  <chemical_smiles>
Clc1ccc2c(c1)C(c1ccccc1)=NCc1nnc(N3CCOCC3)n1-2

>  <unit_symbol>
mg/kg

>  <ED50>
7

$$$$
>  <chemical_smiles>
CN1CCN(c2nnc3n2-c2ccccc2C(c2ccccc2Cl)=NC3)CC1

>  <unit_symbol>
mg/kg

>  <ED50>
0.2

$$$$
>  <chemical_smiles>
OCc1nnc2n1-c1ccc(Cl)cc1C(c1ccccc1Cl)=NC2

>  <unit_symbol>
mg/kg

>  <ED50>
7

$$$$

Switching to the query record.
Which ED50 is reported with Mus musculus for this entry: N#Cc1nnc2n1-c1ccc(Cl)cc1C(c1ccccc1)=NC2 ?
10

Cited source: ChEMBL document CHEMBL3244037
